Listing of entries alongside the reported TGI.
System: UACC-257 melanoma
experimental-protocol: NCI tumour cell line growth inhibition, 48 h

Give the value of TGI reported for the following: N#CC(C#N)=Cc1ccc(C(O)P(=O)(O)O)cc1 (centres undefined) > 100 µM

Please list TGI recorded for the molecule `CC(=O)NNc1nc(C)c(C(/C=C/c2ccc(Cl)cc2)=N\N=C(N)N)s1` > 100 µM

For the molecule `COC(=O)CN=C1NC(=S)N(Cc2ccc(OC)cc2)C12CCCC2` , give its reported TGI. > 100 µM

Query molecule follows.
Quote TGI reported for `O=C1c2cccc([N+](=O)[O-])c2C(=O)c2nccnc21` please. 1.66 µM

* * *

System: HOP-18 NSCLC
experimental-protocol: NCI tumour cell line growth inhibition, 48 h
Item-by-item account of TGI
Use µM as the unit, but write only the number.

// solved cases for TGI follow
Return TGI (reported value) for this molecule: CCN(CC)CCCC(C)Nc1c2ccc(Cl)cc2nc2cc(Cl)ccc12 (stereo not given) 18.1

Indicate its recorded TGI; the molecule in question is `Cn1cnc([N+](=O)[O-])c1Sc1nc2ccccc2o1` 1.36

Entry `CC[C@@]1(O)C(=O)OCc2c1cc1n(c2=O)Cc2cc3c(CN(C)C)c(O)ccc3nc2-1` needs its TGI filled in; supply it. 89

More entries:
Answer with the recorded TGI for the molecule listed here: `O=C1c2cccc([N+](=O)[O-])c2C(=O)c2nccnc21` 3.06

* * *

Test system: 786-0 renal
experimental-protocol: NCI tumour cell line growth inhibition, 48 h
Measured TGI, listed per entry.
Answer with a number only, understood to be in µM.

Example cases with answers are listed next.
Please list TGI recorded for the molecule C=C[C@]1(C)CC(=O)C(C(C)C=O)[C@]12C(=O)Oc1cccc(C)c1C2=O (stereo partly specified) 30

Given the molecule `Cc1ccc(S(=O)(=O)OCC(=O)Nc2ccc(C(=O)O)c(O)c2)cc1` , write its reported TGI. 96.7

Name the recorded TGI of the molecule listed here: `O=C1C(Cl)=C(N2CCN(CCOCCO)CC2)C(=O)c2ccccc21` 24

Turning to the following molecule.
Supply reported TGI belonging to this molecule: CCC(C)C(=O)O[C@H]1C(=O)O[C@@H]2C[C@H]3C(C)=CC(=O)[C@@H](O)[C@]3(C)[C@H]3[C@@H](O)[C@H](O)[C@@]4(C)OC[C@]32[C@@H]14 (stereo partly specified) 0.645

* * *

Tested on: OVCAR-3 ovarian
experimental-protocol: NCI tumour cell line growth inhibition, 48 h
// values below are reported TGI

Below: 2 compounds and their reported TGI.
Provide one value: measured TGI of CC(C)=CC1C(COC(=O)c2ccccc2Cl)C1(C)C (stereo not drawn) 75.8 µM

Output measured TGI for this item: `O=[N+]([O-])c1ccc(Cc2nc3cc4ccccc4cc3[nH]2)cc1C(F)(F)F` 26 µM

---
Read the entry `O=C1NC(=S)N/C1=C\c1ccc(Cl)cc1` and write its reported TGI. > 100 µM

Supply recorded TGI for CN(C)CCOc1ccc2[nH]c(C(=O)N3CC(CCl)c4c3cc([N+](=O)[O-])c3ccccc43)cc2c1 (stereo not drawn) here. 3.68 µM

Complete the entry with TGI for `Cc1ccc(C(=O)O)c(/C=C2\Cc3cc(C)cc(C)c3C2=O)c1` > 100 µM

Fill in TGI for record `O=c1ccc2c(Cl)cccc2o1` > 100 µM

Supply TGI value. Item: `CCOC(=O)NC(=O)c1cn(CCCCCCCCCCC(=O)NCCCN2CCN(CCCNC(=O)CCCCCCCCCCn3cc(C(=O)NC(=O)OCC)c(=O)[nH]c3=O)CC2)c(=O)[nH]c1=O` > 10 µM

Look up and state reported TGI for `COc1ccc(/C(=C/c2ccc3ccccc3c2)c2nn[nH]n2)cc1OC` 7.87 µM

* * *

Tested on: T-47D breast
experimental-protocol: NCI tumour cell line growth inhibition, 48 h
endpoint-name: TGI (µM)
Your answer is read as µM, so omit the unit and give the number.

Please tell me the measured TGI for OCC(O)C(O)C(O)C(O)CNCCO/N=C1/C(c2c(O)[nH]c3ccccc23)=Nc2ccccc21 (stereo not given) ; system: T-47D breast. 22.5

Here's the next entry for you.
Give TGI for this entry on T-47D breast: `CON=C1C[C@]2(C[C@@H]3C[C@@H](C/C=C(\C)C[C@@H](C)/C=C/C=C4\CO[C@@H]5[C@H](O)C(C)=C[C@@H](C(=O)O3)[C@]45O)O2)O[C@H](/C(C)=C/C(C)C)[C@H]1C` 22.2

* * *

Tested on: SNB-19 CNS
experimental-protocol: NCI tumour cell line growth inhibition, 48 h
endpoint-name: GI50

Respond only with GI50 recorded for `COc1cccc(CCNC(=O)CC(c2ccccc2)(c2ccccc2)c2ccccc2)c1` 90.1 µM

Continuing:
Provide only the value of recorded GI50 for `C=C[C@H]1CN2CCc3c([nH]c4c([C@@H]5CCCN5C)c(O)ccc34)[C@@H]2C[C@@H]1C[C@H]1c2[nH]c3ccccc3c2CCN1C` 1.09 µM

Return the recorded GI50 value; entry: `CN1CCN(Cc2ccc(NC(=O)c3cncc(C#Cc4c(N)ncc5c(F)cccc45)c3)cc2C(F)(F)F)CC1` 0.867 µM

Identify measured GI50 associated with `CCC[CH2][Sn]1([CH2]CCC)[O]C(=O)CN=C(C)c2ccccc2[O]1` 1.09 µM

Provide only the value of recorded GI50 for Nc1nc(=S)c2ncn(C3OC(CO)C(O)C3O)c2[nH]1 (configuration not stated) 33.1 µM

Report GI50 for `Cc1cc(I)cc(CNCCN2CCOCC2)c1O` > 100 µM

Give me measured GI50, please, for this compound: `O=C(COc1cccc(/C=C2\COc3ccccc3C2=O)c1)c1ccccc1` 11.8 µM

* * *

Tested on: NCI-H226 lung
experimental-protocol: NCI tumour cell line growth inhibition, 48 h
Catalogue of GI50 readings, one per entry.

These recorded examples may help you get a feel for the data.
Write down GI50 measured for item CC(C)(C)[Si](C)(C)OC1[C@@H](O[Si](C)(C)C(C)(C)C)[C@@H](CNC(=O)NC(=O)NC(=O)CCl)O[C@H]1n1cnc2c(NC(=O)Nc3ccccc3)ncnc21 (stereo partly drawn) 8.67 µM

Supply recorded GI50 for `O=C(NCCCl)NCCN1c2nc3ccccc3cc2Sc2cc3ccccc3nc21` here. 1.82 µM

# return recorded GI50 for input `Nc1c(C(=O)c2ccc(C#CCN3CCOCC3)cc2)cnn1-c1ccc(F)cc1` > 25 µM

Return reported GI50. Input molecule: `C[C@@H](Oc1ccc(Oc2cnc3ccc(Cl)cc3n2)cc1)C(=O)O` 67.1 µM

Retrieve GI50 measured for `CCC1=C[C@@H]2CN(C1)Cc1c([nH]c3ccccc13)[C@@](C(=O)OC)(c1cc3c(cc1OC)N(C)[C@H]1[C@@](O)(C(=O)OC)[C@H](OC(C)=O)[C@]4(CC)C=CCN5CC[C@]31[C@@H]54)C2` and print it. < 0.0302 µM

// fetch GI50 given entry `O=C(/C=C\c1cc(Br)ccc1O)/C=C/c1cc(Br)ccc1O` 2.63 µM

Return reported GI50. Input molecule: Clc1ccc(C2CC(c3cccc(Nc4ccncc4)c3)=NN2c2ccccc2)cc1 (stereo not drawn) 16.4 µM

---
Provide only the value of recorded GI50 for `CC[O-].CC[O-].COc1ccc(C(=O)[CH-]C(C)=O)cc1OC.COc1ccc(C(=O)[CH-]C(C)=O)cc1OC.[Ti+4]` > 100 µM

* * *

System: PC-3 prostate
experimental-protocol: NCI tumour cell line growth inhibition, 48 h
endpoint-name: TGI

# count of solved cases: 5
Please report TGI for the following compound: CN(C)CCOc1ccc2[nH]c(C(=O)N3CC(CCl)c4c3cc([N+](=O)[O-])c3ccccc43)cc2c1 (centres undefined) > 100 µM

Consider the compound CCC(C)C(=O)O[C@H]1C(=O)O[C@@H]2C[C@H]3C(C)=CC(=O)[C@@H](O)[C@]3(C)[C@H]3[C@@H](O)[C@H](O)[C@@]4(C)OC[C@]32[C@@H]14 (some centres undefined) and give its recorded TGI. 0.0143 µM

Query TGI for Nc1nc(=S)c2ncn(C3OC(CO)C(O)C3O)c2[nH]1 (centres undefined) > 100 µM

Specify measured TGI for COc1ccc(N=C(CS(=O)c2ccc(C)cc2)C(F)(F)F)cc1 (centres undefined) . > 100 µM

Look up TGI of `COC(=O)[C@H](C)NC(=O)C1(CNC(=O)[C@H](C)NC(=O)OC(C)(C)C)Cc2ccccc2-c2ccccc2C1` and report it. > 75.4 µM

The record that follows has no TGI shown yet.
State its TGI for this compound: Cc1nn(C(=O)c2ccc(Cl)cc2)c2c1C(c1ccccc1O)SC(N)=N2 (centres undefined) > 10 µM

* * *

Tested on: HOP-92 NSCLC
experimental-protocol: NCI tumour cell line growth inhibition, 48 h; in the data active means GI50 below about 0.43 µM; inactive means the rest
Lab note: assign the record to one of 1 (yes) = active, 0 (no) = inactive

In this assay, the call recorded for `CCCCCCCCCCCCNC(=O)N[C@H](C(=O)N[C@H]1/C=C/CCNC(=O)/C=C/[C@H](C)NC1=O)C(C)C` was what? 1 (yes)

What did this assay record as the result for COc1cc(N2CCN(C(C)C)CC2)ccc1Nc1nc(Nc2ccc(F)cc2C(=O)NCC(O)CO)c2cc[nH]c2n1 (centres undefined) ? 1 (yes)

What outcome does the record of this test show for `COc1cccc(CCNC(=O)CC(c2ccccc2)(c2ccccc2)c2ccccc2)c1` ? 0 (no)

Which outcome did this test record for the compound `COc1ccc(/C(=C/c2ccc3ccccc3c2)c2nn[nH]n2)cc1OC` ? 0 (no)

Any idea what this test logged for `COc1ccc(CN2C(=O)/C(=C\C(=O)c3ccc(OCCN4CCCC4)cc3)c3ccccc32)cc1` ? 0 (no)

New cases:
Hello, I am checking results. What call was entered for `Clc1ccc(OCc2nnc3sc(SSc4nn5c(COc6ccc(Cl)cc6)nnc5s4)nn23)cc1` ? 0 (no)

State the result this test recorded for `O=c1c2cccc(F)c2sc2c(NCCCNCCO)nc3ccccc3c12` . 0 (no)

Call for entry `O=C1Nc2ccc(O)cc2/C1=C\c1ccncc1` : 0 (no)

# lookup: test call for `O=C(/C=C\c1cc(Br)ccc1O)/C=C/c1cc(Br)ccc1O` 0 (no)
